inhibition at 50 µM values, listed per item
System: Klebsiella pneumoniae (ATCC 700603)
Test: Anti-bacterial activity assay
Format: cell-based
Settings: ATCC700603, 50 µM, read-out: Bacterial Inhibition K. pneumoniae
readout_kind: inhibition at 50 µM (%)

molecule: Cc1ccc(C(=O)Nc2cc(-c3nc(C)cs3)sc2C)cc1 [SN00798457, Cc1ccc(cc1)C(=O)Nc1cc(sc1C)c1scc(C)n1]
system_under_test: Klebsiella pneumoniae (ATCC 700603)
numeric_readout: 0.63

molecule: Cc1ccc(NC(=O)c2cc3c(Cl)ccc4c3n2CCO4)cc1 [SN00788144, Cc1ccc(cc1)NC(=O)c1cc2c(Cl)ccc3OCCn1c23]
system_under_test: Klebsiella pneumoniae (ATCC 700603)
numeric_readout: 13.5

molecule: COc1ccc(C)cc1N1C(=O)C(c2ccccc2)C(c2nc3ccccc3s2)=C1N (stereo not shown) [SN00776374]
system_under_test: Klebsiella pneumoniae (ATCC 700603)
numeric_readout: 11.7

molecule: O=[N+]([O-])c1cc(F)ccc1Sc1nnc(N2CCOCC2)s1 [SN00781107, Fc1ccc(Sc2nnc(s2)N2CCOCC2)c(c1)N(=O)=O]
system_under_test: Klebsiella pneumoniae (ATCC 700603)
numeric_readout: 10.6

molecule: Cc1ccc(-n2c(=O)c3c(cnn3C)n(CC(=O)Nc3ccccc3C)c2=O)cc1 [SN00784346]
system_under_test: Klebsiella pneumoniae (ATCC 700603)
numeric_readout: -2.01

molecule: Cc1cc(-c2cc(C(=O)Nc3ccc(N4CCN(C)CC4)nc3)c3cnn(C(C)C)c3n2)c(C)o1 [SN00776497]
system_under_test: Klebsiella pneumoniae (ATCC 700603)
numeric_readout: 8.25

molecule: COc1ccc(-c2csc(C3=C(N)N(CC(C)(C)CN(C)C)CC3=O)n2)cc1OC [SN00776314]
system_under_test: Klebsiella pneumoniae (ATCC 700603)
numeric_readout: 10.9

molecule: Cc1ccc(NC(=O)CN2C(=O)C3CCCCN3c3ccc(C(=O)N4CCCC4)cc32)cc1 (stereo not shown) [SN00792764]
system_under_test: Klebsiella pneumoniae (ATCC 700603)
numeric_readout: 5.08

molecule: COc1ccc(Nc2cc(C)nc(N3CCN(C(=O)Nc4cccc(OC)c4)CC3)n2)cc1 [SN00793512]
system_under_test: Klebsiella pneumoniae (ATCC 700603)
numeric_readout: 4.81

molecule: Cc1ccc(C)c(-c2cc3c4nn(CC(=O)N(C)c5ccc(F)cc5)c(=O)n4ccn3n2)c1 [SN00790641]
system_under_test: Klebsiella pneumoniae (ATCC 700603)
numeric_readout: 6.73

====

% Inhibition n=1 48h values, listed per item
Tested on: G. duodenalis BRIS/91/HEPU/1279
Assay: Primary Giardia screen at 10 µM (live-cell imaging, automated counting)
Format: cell-based, Giardia duodenalis
Conditions: 48 h, first singlicate assay

molecule: CCn1nnc2cc(C(=O)N(C)CC(=O)NCc3cccc(C)c3)ccc21
% Inhibition n=1 48h: 14.4%
//
molecule: O=S(=O)(Nc1ccc(OC2CCNCC2)nc1)c1ccccc1
% Inhibition n=1 48h: 0.0%
//
molecule: O=C(Nc1cccc(-c2noc(C3CCOCC3)n2)c1)C1CC1
% Inhibition n=1 48h: 0.0%
//
molecule: Fc1ccc(-c2cc(C(F)(F)F)nc(NCc3ccco3)n2)cc1
% Inhibition n=1 48h: 2.3%
//
molecule: Cc1cccc(C2=NC3(CCN(C(=O)NC4CCCCC4)CC3)NC2=O)c1
% Inhibition n=1 48h: 13.8%
//
molecule: Cc1ccc(C(=O)N2CCCC2c2nc(-c3cccc(C)c3)no2)cc1 (stereo not drawn)
% Inhibition n=1 48h: 0.0%
//
molecule: Cn1ccc2c(cc(C(=O)N3CCC(N4CCCCC4)CC3)n2C)c1=O
% Inhibition n=1 48h: 18.7%
//
molecule: CCOc1ccccc1N1C(=O)C(=O)N(Cc2nc(C)no2)C1=O
% Inhibition n=1 48h: 14.0%
//
molecule: O=C(NCc1ccco1)N1CC2C3CCC(C3)C21 (stereo not drawn)
% Inhibition n=1 48h: 2.6%
//
molecule: Cc1c(C(=O)N2CCCC2Cn2cccn2)cnn1-c1ccccc1 (stereo not drawn)
% Inhibition n=1 48h: 16.2%
//
molecule: O=C(NCc1cccc(Br)c1)c1ncoc1-c1cccs1
% Inhibition n=1 48h: 6.4%
//
molecule: COc1ccc(-c2csc(-n3nccc3C(F)(F)F)n2)cc1OC
% Inhibition n=1 48h: 27.9%
//
molecule: CCCNS(=O)(=O)c1cc(-c2nc(-c3cccc(Cl)c3)cs2)n(C)c1C
% Inhibition n=1 48h: 47.2%
//
molecule: Cc1nc(N2CCOCC2)c2c(C(=O)N3CCCC3)c(C)oc2n1
% Inhibition n=1 48h: 0.0%
//
molecule: CCN(CC)S(=O)(=O)c1ccc2[nH]cc(C(=O)NCCCN3CCCC3)c(=O)c2c1
% Inhibition n=1 48h: 13.0%
